experiment: Mouse blood and tissue PK (LC/MS-MS); type: in vivo; conditions: BALB/c nude, mouse, tumor, oral, 25 mg/kg, Capan-2, study Capan-2 #3_PHA 2020, 25 mg/kg, 8h; read-out: RMC-6236 (nM) Tumor
Recorded Metric: concentration at 8 h (nM)

Molecule	Recorded Metric	Readout Units	Measured Result
CCn1c(-c2cc(N3CCN(C)CC3)cnc2[C@H](C)OC)c2c3cc(ccc31)-c1csc(n1)C[C@H](NC(=O)[C@H]1C[C@@H]1C)C(=O)N1CCC[C@H](N1)C(=O)OCC(C)(C)C2	concentration at 8 h	nM	2400

###

Assay: Mouse blood and tissue PK (LC/MS-MS)
Type: in vivo
Conditions: BALB/c nude, mouse, tumor, oral, 25 mg/kg, Capan-2, study Capan-2 #3_PHA 2020, 25 mg/kg, 2h; read-out: RMC-6236 (nM) Tumor
Description: For single-dose PKPD study, mice were randomized and assigned into groups (n = 3/dose/time point). […] Blood and tissues, including the tumor, brain, colon, ear skin, and muscle, were harvested at indicated time points. […] The whole blood, tumor, brain, colon, and ear skin concentrations of RMC-6236 were determined using liquid chromatography–tandem mass spectrometry (LC/MS-MS) methods. […] Concentrations reported as below the quantification limit were treated as zero for PK analysis. […]

Molecule	concentration at 2 h (nM)
CCn1c(-c2cc(N3CCN(C)CC3)cnc2[C@H](C)OC)c2c3cc(ccc31)-c1csc(n1)C[C@H](NC(=O)[C@H]1C[C@@H]1C)C(=O)N1CCC[C@H](N1)C(=O)OCC(C)(C)C2	2200

###

test: Mouse blood and tissue PK (LC/MS-MS); format: in vivo; details: mouse, tumor, oral, 25 mg/kg, KP-4, study KP-4 #4, 25 mg/kg, 8h; read-out: RMC-6236 (nM) Tumor

Compound	concentration at 8 h / nM
CCn1c(-c2cc(N3CCN(C)CC3)cnc2[C@H](C)OC)c2c3cc(ccc31)-c1csc(n1)C[C@H](NC(=O)[C@H]1C[C@@H]1C)C(=O)N1CCC[C@H](N1)C(=O)OCC(C)(C)C2 [RMC-6236]	3030

###

assay: Mouse blood and tissue PK (LC/MS-MS); type: in vivo; conditions: mouse, tumor, oral, 10 mg/kg, Model Validation Dataset; 10mg/kg_study6; 1 h; read-out: Tumor Concentration
Recorded Metric: concentration at 1 h (µM)

Molecule	Recorded Metric	Measured Result
CCn1c(-c2cc(N3CCN(C)CC3)cnc2[C@H](C)OC)c2c3cc(ccc31)-c1csc(n1)C[C@H](NC(=O)[C@H]1C[C@@H]1C)C(=O)N1CCC[C@H](N1)C(=O)OCC(C)(C)C2	concentration at 1 h	0.34

###

experiment: Mouse blood and tissue PK (LC/MS-MS); type: in vivo; conditions: BALB/c nude, mouse, tumor, po, 3 mg/kg, Capan-2 (3 mg/kg), single dose; read-out: Tumor t1/2 (converted)
Recorded Metric: half-life (min)

Molecule	Recorded Metric	Measured Result
CCn1c(-c2cc(N3CCN(C)CC3)cnc2[C@H](C)OC)c2c3cc(ccc31)-c1csc(n1)C[C@H](NC(=O)[C@H]1C[C@@H]1C)C(=O)N1CCC[C@H](N1)C(=O)OCC(C)(C)C2	half-life	996

###

experiment: Mouse blood and tissue PK (LC/MS-MS); type: in vivo; details: BALB/c nude, mouse, tumor, oral, 100 mg/kg, sheet colon; Capan-2, Capan-2 #3_PHA 2023; 100 mg/kg, 2h; read-out: RMC-6236 (nM) Tumor
Recorded Metric: concentration at 2 h

Molecule	Measured Result
CCn1c(-c2cc(N3CCN(C)CC3)cnc2[C@H](C)OC)c2c3cc(ccc31)-c1csc(n1)C[C@H](NC(=O)[C@H]1C[C@@H]1C)C(=O)N1CCC[C@H](N1)C(=O)OCC(C)(C)C2	25300 nM

Source: paper PMC11149917
